test system: Mycobacterium tuberculosis 65021; format: cell-based; conditions: streptomycin 6 μg/ml, isoniazid 0.2 μg/ml, rifampin 2 μg/ml, ethambutol 7.5 μg/ml
readout: susceptibility of strain 65021 to drug

smiles_record | readout | result
[H]/N=C(/N)N[C@H]1[C@H](O)[C@@H](O)[C@H](O[C@@H]2O[C@@H](C)[C@](O)(C=O)[C@H]2O[C@@H]2O[C@@H](CO)[C@H](O)[C@@H](O)[C@@H]2NC)[C@@H](N/C(N)=N\[H])[C@@H]1O | susceptibility of strain 65021 to drug | resistant
NNC(=O)c1ccncc1 | susceptibility of strain 65021 to drug | resistant
CO[C@H]1/C=C/O[C@@]2(C)Oc3c(C)c(O)c4c(O)c(c(/C=N/N5CCN(C)CC5)c(O)c4c3C2=O)NC(=O)/C(C)=C\C=C\[C@H](C)[C@H](O)[C@@H](C)[C@@H](O)[C@@H](C)[C@H](OC(C)=O)[C@@H]1C | susceptibility of strain 65021 to drug | resistant

----------
system: Mycobacterium tuberculosis 57778; type: cell-based; conditions: streptomycin 6 μg/ml, isoniazid 0.2 μg/ml, rifampin 2 μg/ml, ethambutol 7.5 μg/ml
readout: susceptibility of strain 57778 to drug

molecule | tested_on | result
NNC(=O)c1ccncc1 [isoniazid] | Mycobacterium tuberculosis 57778 | resistant
CO[C@H]1/C=C/O[C@@]2(C)Oc3c(C)c(O)c4c(O)c(c(/C=N/N5CCN(C)CC5)c(O)c4c3C2=O)NC(=O)/C(C)=C\C=C\[C@H](C)[C@H](O)[C@@H](C)[C@@H](O)[C@@H](C)[C@H](OC(C)=O)[C@@H]1C [rifampin] | Mycobacterium tuberculosis 57778 | resistant
[H]/N=C(/N)N[C@H]1[C@H](O)[C@@H](O)[C@H](O[C@@H]2O[C@@H](C)[C@](O)(C=O)[C@H]2O[C@@H]2O[C@@H](CO)[C@H](O)[C@@H](O)[C@@H]2NC)[C@@H](N/C(N)=N\[H])[C@@H]1O [streptomycin] | Mycobacterium tuberculosis 57778 | resistant

Source listed as patent US5512269A.
